# systemName: T1, B lymphocyte stimulator protein (BLyS), recombinant (human, UniProt Q9Y275 134-285, limits assumed, biotinylated in the phage screening and phage ELISA; unlabeled in fluorescence anisotropy)
# T1 construct: also called biotinylated BLyS; b-BLyS
# T1 sequence (Q9Y275 134-285 limits assumed): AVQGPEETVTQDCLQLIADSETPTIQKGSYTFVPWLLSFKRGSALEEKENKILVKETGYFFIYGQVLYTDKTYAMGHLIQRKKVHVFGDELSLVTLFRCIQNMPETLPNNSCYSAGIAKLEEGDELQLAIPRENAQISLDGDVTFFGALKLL
# assayOverview: fluorescence anisotropy
No end group written: not given here.

>  <binder>
Ac-WYDPLTKLWLGGK(fitc) (10-mer core (positions 3-12 of the 14-mer) with GGK linker) [DX876]

>  <Kd>
171 nM

$$$$

Measured values drawn from patent US20030091565A1 for this set.
